# System: KB-3-1
# Run description: Cytotoxic Profiling of Annotated Libraries Using Quantitative High-Throughput Screening (AID 1296008); note: nearly all actives have a fitted effect of over 60% in size
# Experimental conditions: Five cell lines viability, CellTiter-Glo ATP luminescence, 48-72 h
Inconclusive results are not listed. The source made the active and inactive calls. Calls come from the whole dose curve; as a rule, active = well fitted inhibition curve with a large enough effect; inconclusive = small, poorly fitted or top-dose-only effect; inactive = flat fitted curve, though single readings scatter.
Measure name: outcome

// below: answered molecules
Molecule	Observed result
CCC(C)/C=C(C)/C=C/c1cc2c(cn1)C(=O)C(C)(OC(C)=O)C(O)=C2Cl (configuration not stated)	inactive
CC1(C=O)CC[C@]2(C(=O)O[C@@H]3O[C@H](CO)[C@@H](O)[C@H](O)[C@H]3O)CC[C@]3(C)C(=CCC4[C@@]5(C)C[C@H](O)[C@H](O[C@@H]6OC[C@@H](O)[C@H](O)[C@H]6O)[C@@](C)(CO)C5CC[C@]43C)C2C1 (some centres not stated)	inactive
OC[C@H]1O[C@@H](Oc2cc(O)c3c(c2)O[C@@H](c2ccc(O)cc2)[C@H](O)C3)[C@H](O)[C@@H](O)[C@@H]1O	inactive
NC(=O)[C@H](O[C@@H]1O[C@H](CO)[C@@H](O)[C@H](O)[C@H]1O)c1ccccc1	inactive
C=C[C@H]1[C@H](O[C@@H]2O[C@H](CO)[C@@H](O)[C@H](O)[C@H]2O)OC=C(C(=O)OC)[C@H]1CCOC(=O)c1cc(O)c(O)c(O)c1	inactive

Value lookup for outcome; key = COc1c(C)c(OCC(O)C(C)(C)O)cc2c1COC2=O (configuration not stated)
inactive

Another molecule: CC1(C)CC2C=C(C(=O)O)C3COC(=O)C(O)(CO)C23C1 (configuration not stated)
inactive
